System: TNFα-FL/Gaussia Luciferase
testName: Dox Induced TNFα-FL-Gluc Assay
Assay type: cell-based
conditionDetails: 24 hr Dox induction; 293FRT/TO cells; read-out: 24 hr Dox Inducible TNFaFLGluc 293FRT/TO: Mean IC50
measurementName: pIC50
Please express pIC50 as -log10 of the molar concentration.

Cc1cc(C(=O)Nc2nc([C@H]3CCCN3c3ccccc3)cs2)n(Cc2ccncc2)c1: 6.23
N#Cc1cc(C(=O)Nc2nc([C@H]3CCCN3c3ccccc3)cs2)n(Cc2ccnc(F)c2)c1: 5.99
O=C(CO)Nc1ccc(N2CCC[C@@H]2c2csc(NC(=O)c3cccn3Cc3ccnc(F)c3)n2)cc1: 6.30
O=C(Nc1nc([C@H]2CCCN2c2ccc(CCO)cc2)cs1)c1cccn1Cc1ccnc(F)c1: 6.80
CNC(=O)N1CCC(Oc2ccc(N3CCC[C@@H]3c3csc(NC(=O)c4cccn4Cc4ccnc(F)c4)n3)cc2)CC1: 6.00

Now for the molecule whose pIC50 we want.
Value of measured pIC50 for the entry CN1c2ccccc2CCC1/C=C/c1csc(NC(=O)c2cccn2Cc2ccncc2)n1 (stereo not drawn) : 5.45

Source of measurements: patent US20230286973A1
